Experiment: Acute toxicity (LD50), rat
Conditions: in vivo, iv, Ratte, read-out: LD₅₀ i.v.
Readings of LD50 for the listed compounds
READOUT_TYPE: LD50 (mg/kg)

| COMPOUND | QUAL | TEST_RESULT |
| --- | --- | --- |
| CC1CC(=O)NN=C1c1ccc2nc(-c3ccc(O)cc3)[nH]c2c1 (centres unmarked) | > | 100 |
| COc1ccc(-c2nc3ccc(C4=NNC(=O)CC4C)cc3[nH]2)cc1 (centres unmarked) | = | 72 |
